Provenance of the data: paper PMC10459044

biological target: human BChE (Homo sapiens, UniProt P06276); construct: human plasma BChE (Mechnikov Scientific Research Institute of Vaccines and Serums, St. Petersburg, Russia); purchased Mechnikov Scientific Research Institute of Vaccines and Serums, St. Petersburg, Russia; host or cells: human plasma (natural source); test: Inhibition of human plasma BChE, microplate Ellman method; format: biochemical; conditions: human plasma BChE (1:30 dilution), BTCh substrate, 37 °C; read-out: Ki
Sequence (P06276 29-602): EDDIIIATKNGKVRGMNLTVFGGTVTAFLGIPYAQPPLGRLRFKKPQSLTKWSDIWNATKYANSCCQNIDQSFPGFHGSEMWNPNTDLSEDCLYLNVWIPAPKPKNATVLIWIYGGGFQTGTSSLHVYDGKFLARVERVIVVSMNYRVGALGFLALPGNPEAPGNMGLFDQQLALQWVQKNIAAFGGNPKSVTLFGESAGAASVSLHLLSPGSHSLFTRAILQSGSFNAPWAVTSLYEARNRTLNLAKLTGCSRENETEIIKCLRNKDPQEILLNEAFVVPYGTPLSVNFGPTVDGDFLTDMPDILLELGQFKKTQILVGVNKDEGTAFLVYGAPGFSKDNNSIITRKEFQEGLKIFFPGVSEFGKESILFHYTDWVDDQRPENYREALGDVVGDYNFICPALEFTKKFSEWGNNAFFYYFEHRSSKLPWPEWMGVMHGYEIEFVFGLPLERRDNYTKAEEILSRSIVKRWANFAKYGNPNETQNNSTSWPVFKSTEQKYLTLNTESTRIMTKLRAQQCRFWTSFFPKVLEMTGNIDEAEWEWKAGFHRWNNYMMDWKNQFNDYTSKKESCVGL
pKi: −log10 of the molar value.
# key: entry, value: pKi
readout.name: pKi

> print(dat)
                                   compound  readout.name  reported.value
1  CN(C)CCNC(=O)n1c(=O)n(C2CC2)c2ccccc21 [Compound 28]           pKi            4.55
2  CC(C)n1c(=O)n(C(=O)NC2CC3CCC(C2)N3C)c2cc(C(F)(F)F)ccc21 (stereo not drawn) [Compound 16]           pKi            4.67
3  CC(C)n1c(=O)n(C(=O)NC2CC3CCC(C2)N3C)c2ccccc21 (stereo not drawn) [Compound 15, reference compound]           pKi            5.01
